Assay: Half life in dog at 1 mg/kg, iv by LC-MS/MS analysis
Assay type: ADME, organism-based, Canis lupus familiaris
Details: in vivo
measured-metric: half-life (h)
Answer format: numeric, h implied, no suffix.

query: Record request: half-life value, item `O=C(O)CCc1cc(F)c(OCc2c(C(F)(F)F)ccn2-c2ccc(Cl)cc2)c(F)c1`
result: 4.72

###

Assay: Cmax in guinea pig at 22.4 mg/kg
Assay type: ADME, organism-based, Cavia porcellus
Design: dose 22.4 mg/kg
Settings: in vivo
measured-metric: Cmax (µg/mL)
Answer format: numeric, µg/mL implied, no suffix.

query: Record request: Cmax value, item `O=C(O)CCc1cc(F)c(OCc2c(C(F)(F)F)ccn2-c2ccc(Cl)cc2)c(F)c1`
result: 105
